# Test system: SW1990
# Assay: MTT anti-viability assay
# Type: cell-based
# Test conditions: SW1990, Human pancreatic cancer cell, 72 hours
Measured endpoint: IC50 (µM)
Give bare numbers, in µM.

Find the recorded IC50 belonging to CN1CCN(c2ccc(Nc3ncc(F)c(Nc4ccc(Cl)cc4C(N)=O)n3)cc2)CC1 and report it.
2.19

* * *

# Tested system: CDK3 (Homo sapiens, UniProt Q00526)
# Sequence (Q00526 whole entry): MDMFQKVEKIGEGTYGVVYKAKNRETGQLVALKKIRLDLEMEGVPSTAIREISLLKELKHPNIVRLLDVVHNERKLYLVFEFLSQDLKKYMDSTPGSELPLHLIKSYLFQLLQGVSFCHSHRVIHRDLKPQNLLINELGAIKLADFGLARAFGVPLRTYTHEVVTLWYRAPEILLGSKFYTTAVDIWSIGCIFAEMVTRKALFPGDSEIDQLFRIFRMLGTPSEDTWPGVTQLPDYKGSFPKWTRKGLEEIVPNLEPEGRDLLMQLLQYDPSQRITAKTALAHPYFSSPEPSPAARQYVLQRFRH
# Sequence (P24864 whole entry partner): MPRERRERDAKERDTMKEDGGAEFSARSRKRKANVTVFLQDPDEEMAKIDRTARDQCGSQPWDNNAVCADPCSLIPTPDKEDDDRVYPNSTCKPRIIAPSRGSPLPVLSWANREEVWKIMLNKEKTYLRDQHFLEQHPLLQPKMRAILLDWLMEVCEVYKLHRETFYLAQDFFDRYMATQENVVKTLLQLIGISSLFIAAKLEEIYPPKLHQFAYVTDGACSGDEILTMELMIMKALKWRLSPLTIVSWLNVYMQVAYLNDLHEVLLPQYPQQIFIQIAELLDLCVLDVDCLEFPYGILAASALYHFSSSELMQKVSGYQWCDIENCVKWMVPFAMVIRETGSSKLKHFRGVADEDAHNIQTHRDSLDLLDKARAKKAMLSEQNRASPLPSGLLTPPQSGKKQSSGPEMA
Measured endpoint: IC50

Find the recorded IC50 belonging to CN1CCN(c2ccc(Nc3ncc(F)c(Nc4ccc(Cl)cc4C(N)=O)n3)cc2)CC1 and report it.
> 10 µM

* * *

# Tested system: GSK3β (Homo sapiens, UniProt P49841)
# Sequence (P49841 whole entry): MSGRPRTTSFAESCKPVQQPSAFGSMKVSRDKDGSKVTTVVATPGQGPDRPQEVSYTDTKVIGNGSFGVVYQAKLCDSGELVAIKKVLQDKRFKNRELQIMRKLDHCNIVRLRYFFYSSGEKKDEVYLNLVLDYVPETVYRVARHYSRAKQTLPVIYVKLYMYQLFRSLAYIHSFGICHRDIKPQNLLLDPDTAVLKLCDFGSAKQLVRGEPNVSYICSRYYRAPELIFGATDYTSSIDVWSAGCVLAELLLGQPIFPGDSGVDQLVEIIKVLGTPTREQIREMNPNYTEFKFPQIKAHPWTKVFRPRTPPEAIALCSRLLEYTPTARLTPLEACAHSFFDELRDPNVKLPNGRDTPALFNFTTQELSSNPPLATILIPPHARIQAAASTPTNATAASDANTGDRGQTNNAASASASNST
pIC50: −log10 of the molar value.
Measured endpoint: pIC50

API: value(readout= pIC50, system= GSK3β (Homo sapiens, UniProt P49841), query= CN1CCN(c2ccc(Nc3ncc(F)c(Nc4ccc(Cl)cc4C(N)=O)n3)cc2)CC1 [SKLB-850] )
< 5.00

* * *

# Tested system: Src (Homo sapiens)
# Sequence (P12931 whole entry): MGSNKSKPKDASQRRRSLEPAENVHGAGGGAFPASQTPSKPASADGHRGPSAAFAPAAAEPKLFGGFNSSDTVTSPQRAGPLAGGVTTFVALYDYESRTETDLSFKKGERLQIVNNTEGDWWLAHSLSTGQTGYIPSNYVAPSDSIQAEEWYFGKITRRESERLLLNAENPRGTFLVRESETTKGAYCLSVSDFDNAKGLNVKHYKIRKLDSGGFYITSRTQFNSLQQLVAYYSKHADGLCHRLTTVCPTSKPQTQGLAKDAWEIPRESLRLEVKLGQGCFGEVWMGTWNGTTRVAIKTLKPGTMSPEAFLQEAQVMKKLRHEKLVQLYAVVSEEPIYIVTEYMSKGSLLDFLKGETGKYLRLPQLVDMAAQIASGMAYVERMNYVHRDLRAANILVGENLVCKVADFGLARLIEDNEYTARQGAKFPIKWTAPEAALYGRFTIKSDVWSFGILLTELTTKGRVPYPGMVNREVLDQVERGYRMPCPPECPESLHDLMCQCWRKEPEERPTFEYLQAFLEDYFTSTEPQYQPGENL
Measured endpoint: pIC50
Answers are plain numbers, as −log10 of the molar value.

Find the recorded pIC50 belonging to CN1CCN(c2ccc(Nc3ncc(F)c(Nc4ccc(Cl)cc4C(N)=O)n3)cc2)CC1 and report it.
7.60

* * *

# Tested system: UniProt P42345
Measured endpoint: IC50

Find the recorded IC50 belonging to CN1CCN(c2ccc(Nc3ncc(F)c(Nc4ccc(Cl)cc4C(N)=O)n3)cc2)CC1 [SKLB-850] and report it.
> 10 µM

* * *

# Tested system: PIP4K2α (Homo sapiens, UniProt P48426)
# Sequence (P48426 1-406): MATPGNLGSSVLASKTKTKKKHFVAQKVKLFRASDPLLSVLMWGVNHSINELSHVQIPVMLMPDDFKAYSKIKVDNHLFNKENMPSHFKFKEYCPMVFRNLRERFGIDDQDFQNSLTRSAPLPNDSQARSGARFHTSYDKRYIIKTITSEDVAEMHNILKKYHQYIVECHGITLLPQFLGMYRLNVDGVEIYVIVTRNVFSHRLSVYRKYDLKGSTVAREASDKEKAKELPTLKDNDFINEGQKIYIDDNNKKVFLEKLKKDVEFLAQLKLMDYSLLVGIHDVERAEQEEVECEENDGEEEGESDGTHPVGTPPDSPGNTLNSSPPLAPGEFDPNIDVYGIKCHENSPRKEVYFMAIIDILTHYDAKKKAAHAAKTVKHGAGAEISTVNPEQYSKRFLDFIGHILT
Measured endpoint: IC50

Find the recorded IC50 belonging to CN1CCN(c2ccc(Nc3ncc(F)c(Nc4ccc(Cl)cc4C(N)=O)n3)cc2)CC1 and report it.
> 10 µM

* * *

# Tested system: EphB3 (Homo sapiens, UniProt P54753)
# Construct: purchased Millipore (Kinase Profiler service)
# Sequence (P54753 34-998): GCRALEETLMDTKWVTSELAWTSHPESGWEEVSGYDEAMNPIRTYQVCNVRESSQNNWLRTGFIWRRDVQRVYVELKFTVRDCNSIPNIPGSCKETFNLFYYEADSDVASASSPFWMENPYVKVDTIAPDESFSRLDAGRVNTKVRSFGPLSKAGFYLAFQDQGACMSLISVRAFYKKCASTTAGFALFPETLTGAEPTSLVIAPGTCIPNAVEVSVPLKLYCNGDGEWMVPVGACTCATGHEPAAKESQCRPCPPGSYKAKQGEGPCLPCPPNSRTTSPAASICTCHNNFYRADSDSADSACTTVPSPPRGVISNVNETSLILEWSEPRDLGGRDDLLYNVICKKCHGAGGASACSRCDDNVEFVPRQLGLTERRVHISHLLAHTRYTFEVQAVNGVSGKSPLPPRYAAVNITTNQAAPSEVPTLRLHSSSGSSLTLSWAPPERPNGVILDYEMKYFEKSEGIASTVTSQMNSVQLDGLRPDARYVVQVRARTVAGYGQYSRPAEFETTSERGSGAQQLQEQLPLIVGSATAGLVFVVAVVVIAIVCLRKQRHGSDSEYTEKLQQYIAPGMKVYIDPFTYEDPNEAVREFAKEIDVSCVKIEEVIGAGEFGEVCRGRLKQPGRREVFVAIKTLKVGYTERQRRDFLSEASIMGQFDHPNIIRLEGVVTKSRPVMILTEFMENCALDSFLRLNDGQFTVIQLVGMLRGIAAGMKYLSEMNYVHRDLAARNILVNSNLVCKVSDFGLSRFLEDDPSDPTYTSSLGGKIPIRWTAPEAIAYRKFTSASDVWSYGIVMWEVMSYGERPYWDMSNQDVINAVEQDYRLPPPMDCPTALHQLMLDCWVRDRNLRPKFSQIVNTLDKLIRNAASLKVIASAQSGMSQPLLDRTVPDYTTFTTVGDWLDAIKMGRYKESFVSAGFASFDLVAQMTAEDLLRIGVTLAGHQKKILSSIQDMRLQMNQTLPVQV
# Assay: Kinase inhibition, 33P radiometric assay (Millipore Kinase Profiler)
# Assay type: biochemical
pIC50: −log10 of the molar value.
Measured endpoint: pIC50

Find the recorded pIC50 belonging to CN1CCN(c2ccc(Nc3ncc(F)c(Nc4ccc(Cl)cc4C(N)=O)n3)cc2)CC1 [SKLB-850] and report it.
< 5.00

* * *

# Tested system: PKCα (Homo sapiens, UniProt P17252)
Measured endpoint: IC50

API: value(readout= IC50, system= PKCα (Homo sapiens, UniProt P17252), query= CN1CCN(c2ccc(Nc3ncc(F)c(Nc4ccc(Cl)cc4C(N)=O)n3)cc2)CC1 )
> 10 µM

* * *

# System: CFPAC-1
# Assay: MTT anti-viability assay
# Type: cell-based
# Test conditions: CFPAC-1, Human pancreatic cancer cell, 72 hours
Measured endpoint: pIC50
Give bare numbers, as −log10 of the molar value.

Find the recorded pIC50 belonging to CN1CCN(c2ccc(Nc3ncc(F)c(Nc4ccc(Cl)cc4C(N)=O)n3)cc2)CC1 and report it.
5.14

* * *

# Tested system: GSK3α (Homo sapiens, UniProt P49840)
# Sequence (P49840 whole entry): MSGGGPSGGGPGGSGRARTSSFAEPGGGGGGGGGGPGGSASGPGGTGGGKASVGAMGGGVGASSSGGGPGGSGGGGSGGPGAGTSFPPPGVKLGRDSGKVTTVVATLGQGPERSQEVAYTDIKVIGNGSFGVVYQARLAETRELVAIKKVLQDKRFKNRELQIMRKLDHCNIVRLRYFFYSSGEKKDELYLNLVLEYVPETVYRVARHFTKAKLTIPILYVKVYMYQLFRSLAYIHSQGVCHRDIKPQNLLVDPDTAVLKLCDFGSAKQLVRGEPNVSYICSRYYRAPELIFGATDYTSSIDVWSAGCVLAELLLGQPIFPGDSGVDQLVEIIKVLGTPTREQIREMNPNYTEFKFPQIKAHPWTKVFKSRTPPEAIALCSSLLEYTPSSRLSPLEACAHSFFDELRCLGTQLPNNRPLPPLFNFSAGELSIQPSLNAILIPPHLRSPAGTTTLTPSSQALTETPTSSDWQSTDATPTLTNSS
Measured endpoint: IC50

Find the recorded IC50 belonging to CN1CCN(c2ccc(Nc3ncc(F)c(Nc4ccc(Cl)cc4C(N)=O)n3)cc2)CC1 and report it.
> 10 µM

* * *

# Tested system: UniProt:P11309
# Sequence (P11309 whole entry): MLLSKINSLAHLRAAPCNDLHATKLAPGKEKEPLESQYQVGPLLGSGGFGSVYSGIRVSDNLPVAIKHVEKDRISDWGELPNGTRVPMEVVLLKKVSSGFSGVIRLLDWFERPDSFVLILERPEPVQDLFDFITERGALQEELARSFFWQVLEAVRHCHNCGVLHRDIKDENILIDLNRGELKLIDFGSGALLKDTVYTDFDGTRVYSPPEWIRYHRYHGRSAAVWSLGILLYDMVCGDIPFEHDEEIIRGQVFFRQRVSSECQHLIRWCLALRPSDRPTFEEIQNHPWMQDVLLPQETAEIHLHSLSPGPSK
pIC50: −log10 of the molar value.
Measured endpoint: pIC50

Find the recorded pIC50 belonging to CN1CCN(c2ccc(Nc3ncc(F)c(Nc4ccc(Cl)cc4C(N)=O)n3)cc2)CC1 and report it.
< 5.00

* * *

# Tested system: PKBα (Homo sapiens)
# Sequence (P31749 whole entry): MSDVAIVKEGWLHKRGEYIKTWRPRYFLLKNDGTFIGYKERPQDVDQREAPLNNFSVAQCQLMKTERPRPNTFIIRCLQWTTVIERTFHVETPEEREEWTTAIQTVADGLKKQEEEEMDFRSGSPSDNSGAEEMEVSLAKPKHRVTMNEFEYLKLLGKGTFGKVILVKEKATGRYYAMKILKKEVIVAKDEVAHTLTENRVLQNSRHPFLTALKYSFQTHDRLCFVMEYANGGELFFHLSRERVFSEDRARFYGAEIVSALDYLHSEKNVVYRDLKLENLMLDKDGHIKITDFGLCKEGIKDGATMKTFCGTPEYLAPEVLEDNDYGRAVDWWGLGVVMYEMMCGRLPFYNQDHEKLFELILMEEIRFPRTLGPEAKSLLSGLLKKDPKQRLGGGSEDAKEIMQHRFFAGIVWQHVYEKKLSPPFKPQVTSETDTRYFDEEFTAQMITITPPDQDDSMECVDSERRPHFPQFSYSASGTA
Measured endpoint: pIC50
One number for each entry, as −log10 of the molar value.

Find the recorded pIC50 belonging to CN1CCN(c2ccc(Nc3ncc(F)c(Nc4ccc(Cl)cc4C(N)=O)n3)cc2)CC1 and report it.
5.50

* * *

# Tested on: LY-10
# Assay: MTT anti-viability assay
# Type: cell-based
# Test conditions: LY10, LY-10, Human diffuse large B cell lymphoma, 72 hours
Measured endpoint: IC50
# output: number + unit

Find the recorded IC50 belonging to CN1CCN(c2ccc(Nc3ncc(F)c(Nc4ccc(Cl)cc4C(N)=O)n3)cc2)CC1 [SKLB-850] and report it.
900 nM

* * *

# Test system: MDA-MB-231
# Assay: MTT anti-viability assay
# Format: cell-based
# Test conditions: MDA-MB-231, Human breast cancer cell, 72 hours
Measured endpoint: IC50 (nM)
Answers are plain numbers, in nM.

API: value(readout= IC50, system= MDA-MB-231, query= CN1CCN(c2ccc(Nc3ncc(F)c(Nc4ccc(Cl)cc4C(N)=O)n3)cc2)CC1 )
2190

* * *

# Tested system: Syk (Homo sapiens, UniProt P43405)
Measured endpoint: pIC50
Answers are plain numbers, as −log10 of the molar value.

Find the recorded pIC50 belonging to CN1CCN(c2ccc(Nc3ncc(F)c(Nc4ccc(Cl)cc4C(N)=O)n3)cc2)CC1 [SKLB-850] and report it.
7.39

* * *

# Tested system: Pim-2 (Homo sapiens, UniProt Q9P1W9)
# Sequence (Q9P1W9 whole entry): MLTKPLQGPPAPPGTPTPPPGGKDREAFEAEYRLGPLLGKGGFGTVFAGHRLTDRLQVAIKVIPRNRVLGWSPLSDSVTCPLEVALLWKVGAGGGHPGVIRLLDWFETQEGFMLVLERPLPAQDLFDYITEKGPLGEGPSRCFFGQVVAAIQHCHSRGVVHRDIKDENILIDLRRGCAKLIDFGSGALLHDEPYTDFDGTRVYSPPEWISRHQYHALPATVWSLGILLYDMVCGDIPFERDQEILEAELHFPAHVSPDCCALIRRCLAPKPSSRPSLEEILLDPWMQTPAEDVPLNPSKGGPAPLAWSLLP
Measured endpoint: IC50

Find the recorded IC50 belonging to CN1CCN(c2ccc(Nc3ncc(F)c(Nc4ccc(Cl)cc4C(N)=O)n3)cc2)CC1 and report it.
> 10 µM

All figures here come from paper PMC5762338.
